target: pY641-STAT6 in PBMC (Homo sapiens, UniProt P42226); construct: Cryopreserved Peripheral Blood Mononuclear Cells (PBMC) are from AllCells; host or cells: cryopreserved PBMC; test: MSD-pSTAT-PBMC Assay (pSTAT6, IL-4 stimulated); format: cell-based; conditions: pSTAT6, PBMC, compound 3 hrs, then 1 ng/mL IL-4 for 10 min; Table 1114
Sequence (P42226 whole entry): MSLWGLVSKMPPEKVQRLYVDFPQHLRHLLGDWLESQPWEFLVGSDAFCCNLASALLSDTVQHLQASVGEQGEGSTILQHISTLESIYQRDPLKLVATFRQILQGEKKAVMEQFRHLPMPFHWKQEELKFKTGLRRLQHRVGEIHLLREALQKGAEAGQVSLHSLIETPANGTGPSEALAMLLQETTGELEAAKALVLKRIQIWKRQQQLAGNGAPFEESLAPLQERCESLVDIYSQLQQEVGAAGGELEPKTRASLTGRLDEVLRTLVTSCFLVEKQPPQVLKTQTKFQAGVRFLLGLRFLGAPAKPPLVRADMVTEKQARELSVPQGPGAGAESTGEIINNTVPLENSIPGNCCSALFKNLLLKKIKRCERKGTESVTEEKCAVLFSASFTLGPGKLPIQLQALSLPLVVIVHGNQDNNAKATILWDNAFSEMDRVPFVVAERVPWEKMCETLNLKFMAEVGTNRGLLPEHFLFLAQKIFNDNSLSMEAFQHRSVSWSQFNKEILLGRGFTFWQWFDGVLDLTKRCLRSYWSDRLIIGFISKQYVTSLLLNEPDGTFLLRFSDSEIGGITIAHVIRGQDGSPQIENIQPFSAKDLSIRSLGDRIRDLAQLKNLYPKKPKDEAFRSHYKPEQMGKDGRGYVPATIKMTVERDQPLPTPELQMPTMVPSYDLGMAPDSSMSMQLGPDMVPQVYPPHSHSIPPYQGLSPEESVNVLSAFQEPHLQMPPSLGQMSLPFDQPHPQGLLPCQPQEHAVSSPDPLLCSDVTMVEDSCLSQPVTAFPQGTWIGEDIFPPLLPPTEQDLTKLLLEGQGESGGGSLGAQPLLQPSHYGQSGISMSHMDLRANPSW
pIC50: −log10 of the molar value.
readout: pIC50

CC(C)(C)C(=O)SCCOP(=O)(Oc1ccccc1)C(F)(F)c1ccc2sc(C(=O)N[C@H]3CCCC[C@H]4CC[C@@H](C(=O)N5C[C@H](c6ccccc6)[C@@H](C#N)C5)N4C3=O)cc2c1 (single isomer, unassigned) :: 6.00 to 7.00
CCCC(=O)SCCOP(=O)(Oc1cccc(C#N)c1)C(F)(F)c1ccc2sc(C(=O)N[C@H]3CCCC[C@H]4CC[C@@H](C(=O)N5C[C@@H](C#N)[C@H](c6ccccc6)C5)N4C3=O)cc2c1 (single isomer, unassigned) :: 6.00 to 7.00
CCCC(=O)SCCOP(=O)(Oc1cccnc1)C(F)(F)c1ccc2sc(C(=O)N[C@H]3CCCC[C@H]4CC[C@@H](C(=O)N5C[C@@H](C#N)[C@H](c6ccccc6)C5)N4C3=O)cc2c1 (single isomer, unassigned) :: > 7.00

Now turn to the next compound.
Field pIC50 (entry CC(C)OC(=O)[C@H](C)NP(=O)(Oc1ccccc1)C(F)c1ccc2sc(C(=O)N[C@H]3CCC[C@H]4CC[C@@H](C(=O)N5CC(c6cccnc6)C5)N4C3=O)cc2c1 (stereo partly shown) ) reads < 5.52
